- target_desc: African green monkey C5 (African green monkey)
- assay_method_text: cell-based or functional assay
endpoint: AGM Serum AP IC50, hemolysis assay, 5% serum (nM)
Response body: numeric value in nM, unit text excluded.

binder: H4H12171P (antibody, human IgG4, V domains shown, H4H: human IgG4 Fc with S108P hinge mutation) VH: EVQLVESGGGVVRPGGSLRLSCAASGFTFDEYGMTWVRQVPGKGLEWVSGITWNGGFTDYTDSVKGRFTSSRDNAKNSLYLQMNSLRAEDTALYYCARDGYSSSWGAYDIWGQGTMVTVSS VL: DIQMTQSPSSLSASVGDRVTITCRASQSISTYLNWYQQKPGKAPKLLIYAASSLQSGVPLRFSGSGSGTDFTLTISSLQPEDFASYFCQQSYSTPYTFGQGTKLEIK
quantitative_readout: 23.3

binder: H4H12170P (antibody, human IgG4, V domains shown, H4H: human IgG4 Fc with S108P hinge mutation) VH: QVQLVESGGGVVQPGRSLRLSCAASGFTFSGYGMHWVRQAPGKGLEWVALIWLDGSNDYYADSVKGRFTISRDNSKNTLYLQMNRLRAEDTAVYYCARDGPVAAIPDYWGQGTLVTVSS VL: DIQMTQSPSTLSASVGDRVTITCRASQSISRWLAWYQLKPGKAPKLLIYKASSLESGVPSRFSGSGSGTDFTLTISSLQPDDFATYYCQQYNTYSYTFGQGTKLEIK
quantitative_readout: 26.9

binder: H4H11683N (antibody, human IgG4, V domains shown, tested with H4H prefix (human IgG4 Fc with S108P hinge mutation); variable regions follow the numerical identifier; also called H2M11683N) VH: QVQLVESGGGVVQPGRSLRLSCVASGFTFSSYGIHWVRQAPGKGLEWVAVIWDDGNNINYSDSVKGRFIISRDNSRKTVYLQMNSLRGEDTAVYYCARDAPIAPVPDYWGQGTLVTVSS VL: DIQMTQSPSTLSASVGDRVTITCRASQSISSWLAWYQQKPGKAPKLLIYKASSLDTGVPSRFSGSGSGTEFTLTISSLQPDDFATYYCQQYNTYSYTFGLGTKLEIK
quantitative_readout: 40.8

binder: H4H12161P (antibody, human IgG4, V domains shown, H4H: human IgG4 Fc with S108P hinge mutation) VH: EVQLVESGGDLVQPGGSLRLSCAASGFTFSDHYMDWVRQAPGKGLDWIGRIRNKANAYNTEYAASVRGRFTISRDDSQNLLYLQMNSLKTDDTAVYYCVRVWNYAYFAMDVWGQGTTVTVSS VL: DIQMTQSPSSLSASVGDRVTITCRSSQNIGIFLNWYQQKPGEAPNLLISAASSLHSGVPSRFSGSGSGTDFTLTIGSLQPEDFATYYCQQTYNTIFTFGPGTKVDIK
quantitative_readout: 47.5

Now let's try a different one.
Give the reported value of AGM Serum AP IC50, hemolysis assay, 5% serum for this record: H4H12159P (antibody, human IgG4, V domains shown, H4H: human IgG4 Fc with S108P hinge mutation) VH: QVQLVESGGGVVQPGRSLRLSCGASGFTFSTYGMHWVRQAPGKGLEWVAVIWDDGNNKYYADSVKGRFTISRDNSKNTLYLQMNSLRAEDTAVYYCARDSEVAPVGDYWGQGTLVTVSS VL: DIQMTQSPSTLSASVGDRVTIICRASQSINRWLAWYQQKPGKAPKLLIYKASSLESGVPSRFSGSGSGTEFTLTISSLQPDDFAAYYCQQYNDYSYTFGQGTKLEIK
27
